- system_name: Solute carrier organic anion transporter family member 1B3 (Homo sapiens)
- Sequence (Q9NPD5 whole entry): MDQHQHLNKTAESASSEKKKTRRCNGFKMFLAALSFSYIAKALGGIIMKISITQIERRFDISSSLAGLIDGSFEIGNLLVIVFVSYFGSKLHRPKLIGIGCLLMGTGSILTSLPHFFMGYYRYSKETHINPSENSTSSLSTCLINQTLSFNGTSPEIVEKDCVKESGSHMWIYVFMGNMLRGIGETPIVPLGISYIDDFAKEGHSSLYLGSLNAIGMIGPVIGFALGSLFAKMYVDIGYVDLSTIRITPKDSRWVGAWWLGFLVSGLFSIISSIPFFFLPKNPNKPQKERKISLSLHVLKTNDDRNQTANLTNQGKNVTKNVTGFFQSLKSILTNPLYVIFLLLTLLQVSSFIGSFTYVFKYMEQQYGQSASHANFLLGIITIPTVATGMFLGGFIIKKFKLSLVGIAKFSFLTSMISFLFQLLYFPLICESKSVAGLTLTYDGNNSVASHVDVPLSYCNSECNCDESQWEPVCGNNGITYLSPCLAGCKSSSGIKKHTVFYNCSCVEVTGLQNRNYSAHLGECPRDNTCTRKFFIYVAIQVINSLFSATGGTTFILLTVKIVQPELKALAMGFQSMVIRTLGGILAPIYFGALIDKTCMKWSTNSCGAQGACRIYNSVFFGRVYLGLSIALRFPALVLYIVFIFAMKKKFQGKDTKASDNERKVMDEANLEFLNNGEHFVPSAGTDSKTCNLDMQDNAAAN
- applied_conditions: chinese hamster, cho, 10 µM

| compound | residual activity, % |
| --- | --- |
| CCOC(=O)NNc1nncc2ccccc12.Cl [TODRALAZINE HYDROCHLORIDE] | 106.5 |
| C=CCSCC1Nc2cc(Cl)c(S(N)(=O)=O)cc2S(=O)(=O)N1 (configuration not stated) [ALTHIAZIDE] | 95.11 |
| CC(=O)N(O)CCCCCNC(=O)CCC(=O)N(O)CCCCCNC(=O)CCC(=O)N(O)CCCCCN.CS(=O)(=O)O [DEFEROXAMINE MESYLATE] | 98.92 |
| COc1ccc(C(=O)O)c(O)c1OC [2-HYDROXY-3,4-DIMETHOXYBENZOIC ACID] | 82.78 |
| O=C1OC(c2ccc(O)cc2)(c2ccc(O)cc2)c2ccccc21 [PHENOLPHTHALEIN] | 37.96 |
| C[C@@H]1CC(Cl)CC[C@H]1C(=O)OC(C)(C)C.C[C@@H]1CCC(Cl)C[C@H]1C(=O)OC(C)(C)C (some centres not stated) | 115.1 |
| COc1c(O)cccc1O [2-METHOXYRESORCINOL] | 98.72 |
| CC(C)[C@@H](C)/C=C/[C@@H](C)[C@H]1CC[C@H]2C3=CC=C4C[C@@H](O)CC[C@]4(C)[C@H]3CC[C@]12C [ERGOSTEROL] | 52.34 |
| COc1ccc(C(=O)O)cc1OC [VERATRIC ACID] | 106.9 |
| CC(=O)O[C@H]1C(=O)[C@@]2(C)[C@H]([C@H](OC(=O)c3ccccc3)[C@]3(O)C[C@H](OC(=O)[C@H](O)[C@@H](NC(=O)c4ccccc4)c4ccccc4)C(C)=C1C3(C)C)[C@]1(OC(C)=O)CO[C@@H]1C[C@@H]2O [PACLITAXEL] | 52.9 |
| O=C(O[C@@H]1Cc2c(O)cc(O)cc2O[C@@H]1c1ccc(O)c(O)c1)c1cc(O)c(O)c(O)c1 [EPICATECHIN GALLATE] | 25.25 |
| CCCCOc1ccc(OCCCN2CCOCC2)cc1.Cl [PRAMOXINE HYDROCHLORIDE] | 99.07 |
| CC(=O)OC[C@@]1(O)C[C@@]23CC[C@@H]4c5ccoc5CC[C@@]4(C)[C@@H]2CC[C@@H]1C3 [CAFESTOL ACETATE] | 89.68 |
| C[C@H](N)[C@H](O)c1ccc(O)c(O)c1 [LEVONORDEFRIN] | 80.26 |
| COc1ccc2c(=O)ccoc2c1 [7-METHOXYCHROMONE] | 95.23 |
| C/C1=C\CC/C(C)=C/CC(C)(C)/C=C/C1 [ALPHA-HUMULONE] | 109.1 |
| COc1cc(Cc2cnc(N)nc2N)cc(OC)c1OC [TRIMETHOPRIM] | 97.26 |
| C=C(C)/C=C1/C=CC(=O)C(C)=C1 [RETUSOQUINONE] | 92.24 |
| N[C@@H]1C[C@H]1c1ccccc1.N[C@H]1C[C@@H]1c1ccccc1.O=S(=O)(O)O [TRANYLCYPROMINE SULFATE] | 84.19 |
| CC1(C)S[C@@H]2[C@H](N3C(=O)[C@@H](c4ccccc4)NC3(C)C)C(=O)N2[C@H]1C(=O)[O-].[K+] [HETACILLIN POTASSIUM] | 89.09 |
| CC1(C)S[C@@H]2[C@H](NC(=O)[C@H](NC(=O)N3CCNC3=O)c3ccccc3)C(=O)N2[C@H]1C(=O)[O-].[Na+] [AZLOCILLIN SODIUM] | 85.12 |
| C=C(C)[C@@H]1CC=C(CO)CC1 [PERILLYL ALCOHOL] | 91.29 |
| Cc1cc(C(C)(C)C)cc(C)c1CC1=NCCN1.Cl [XYLOMETAZOLINE HYDROCHLORIDE] | 99.17 |
| C[C@H]1c2cccc(O)c2C(=O)C2=C(O)[C@]3(O)C(=O)C(C(N)=O)=C(O)[C@@H](N(C)C)[C@@H]3[C@@H](O)[C@@H]21.Cl [DOXYCYCLINE HYDROCHLORIDE] | 106 |
| CN[C@@H](C)[C@H](O)c1ccccc1.Cl [EPHEDRINE HYDROCHLORIDE] | 105.1 |
| O=c1c(-c2ccccc2)coc2cc(O)cc(O)c12 [5,7-DIHYDROXYISOFLAVONE] | 75.57 |
| CC(=O)Oc1cc(OC(C)=O)c2c(c1)O[C@H](c1ccc(OC(C)=O)c(OC(C)=O)c1)[C@@H](OC(C)=O)C2 [CATECHIN PENTAACETATE] | 104.9 |
| O=C(O)c1cn(C2CC2)c2cc(N3CCNCC3)c(F)cc2c1=O [CIPROFLOXACIN] | 112.4 |
| CC(C)c1ccc2c(c1)CCC1[C@](C)(CN)CCC[C@]21C.O=S(=O)(O)O (some centres not stated) [18-AMINOABIETA-8,11,13-TRIENE SULFATE] | 99.03 |
| CC(=O)OC/C=C(C)/C=C/C=C(C)/C=C/C1=C(C)CCCC1(C)C [GILRETINOL ACETATE] | 23.53 |
| C=C[C@](C)(O)CCC=C(C)C [LINALOOL (+)] | 117.7 |
| O=C(O)Cc1nn(Cc2ccc(Br)cc2F)c(=O)c2ccccc12 [PONALRESTAT] | 83.62 |

This collection of values is drawn from ChEMBL document CHEMBL3039007.
